Data provenance: patent US20110028447A1

molecular target: human CB1 receptor (Homo sapiens); assay: Human CB1 receptor binding, [3H] CP-55,940 displacement on HEK cell membranes; set-up: expressed in transfected cells; host or cells: HEK cells, doxycycline-induced; membrane preparation; details: CB1 Ki
Sequence (P21554 whole entry): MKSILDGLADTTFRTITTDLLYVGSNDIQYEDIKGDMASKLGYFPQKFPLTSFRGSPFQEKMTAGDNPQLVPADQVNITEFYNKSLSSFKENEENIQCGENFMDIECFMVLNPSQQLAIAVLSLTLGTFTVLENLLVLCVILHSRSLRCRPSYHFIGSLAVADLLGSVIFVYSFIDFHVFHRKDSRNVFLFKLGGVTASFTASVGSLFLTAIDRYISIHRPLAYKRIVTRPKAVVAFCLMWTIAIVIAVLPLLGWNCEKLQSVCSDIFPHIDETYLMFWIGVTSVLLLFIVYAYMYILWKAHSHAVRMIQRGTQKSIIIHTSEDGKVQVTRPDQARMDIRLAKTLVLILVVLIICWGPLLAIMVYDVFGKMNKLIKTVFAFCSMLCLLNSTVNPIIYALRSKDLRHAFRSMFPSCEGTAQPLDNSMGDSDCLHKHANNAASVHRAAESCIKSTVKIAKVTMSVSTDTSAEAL
I'd be grateful if you could share measured log10 Ki for these entries.
Please interpret these as log10 of Ki where Ki is in nM.

Solved cases below.
CC(C)(C)[C@H](NC(=O)c1nn(Cc2ccc(C#N)cc2F)c2c(F)c(F)ccc12)C(=O)NCCS(C)(=O)=O : 2.10
CC(C)(C)[C@H](NC(=O)c1nn(Cc2ccc(C#N)cc2F)c2ccccc12)C(=O)N[C@H]1C[C@@H](C(N)=O)C1 : 2.39
CC(C)(C)C(NC(=O)c1nn(Cc2ccccc2C#N)c2ccccc12)C(N)=O (stereo not shown) : 0.96
CC(C)C(NC(=O)c1nn(Cc2cccc(F)c2)c2ccccc12)C(N)=O (stereo not shown) : 1.71
COC(=O)[C@@H](CO)NC(=O)[C@@H](NC(=O)c1nn(Cc2ccc(F)cc2)c2ccccc12)C(C)(C)C : 1.13

Hello, I would appreciate it if you could give log10 Ki for each entry below.
1. CC(C)C(NC(=O)c1nn(Cc2ccccc2F)c2ccccc12)C(N)=O (stereo not shown)
2. CC(C)(C)[C@H](NC(=O)c1nn(Cc2ccc(F)cc2)c2ccc(Cl)cc12)C(=O)NC[C@@H](O)CO
3. CC(C)(C)[C@H](NC(=O)c1nn(Cc2ccc(F)cc2)c2ccccc12)C(=O)N1C[C@@H](O)[C@H](O)C1
4. CC(C)(C)[C@H](NC(=O)c1nn(Cc2ccc(C#N)cc2)c2c(F)cccc12)C(N)=O
5. CC(C)(C)[C@H](NC(=O)c1nn(Cc2ccc(C#N)cc2)c2c(F)cccc12)C(=O)N[C@H]1C[C@H](O)C1
6. COC(=O)[C@H](CO)NC(=O)[C@@H](NC(=O)c1nn(Cc2ccc(F)cc2)c2ccccc12)C(C)(C)C
7. CC(C)(C)[C@H](NC(=O)c1nn(Cc2ccc(F)cc2)c2ccccc12)C(=O)NCC1CCOCC1

0.67
1.74
-0.19
-0.14
1.72
-0.03
0.49
